- Tested on: HT-29
- procedure-text: Cytotoxicity against human HT29 cells after 4 days by MTT assay
- Assay type: functional, cell-based
- condition-notes: HT-29, 96 h
pIC50: −log10 of the molar value.
Form field: pIC50 (one value per entry).
observation-type: pIC50

{"query-smiles": "CC[C@@]1(O)C(=O)OCc2c1cc1n(c2=O)Cc2cc3c4c(ccc3nc2-1)OCN(c1ccccc1C)C4", "tested-system": "HT-29", "observation-type": "pIC50", "numeric-readout": 6.66}
{"query-smiles": "CCCN1COc2ccc3nc4c(cc3c2C1)Cn1c-4cc2c(c1=O)COC(=O)[C@]2(O)CC", "tested-system": "HT-29", "observation-type": "pIC50", "numeric-readout": 6.74}
{"query-smiles": "CC[C@@]1(O)C(=O)OCc2c1cc1n(c2=O)Cc2cc3ccccc3nc2-1", "tested-system": "HT-29", "observation-type": "pIC50", "numeric-readout": 7.05}
{"query-smiles": "CCN1COc2ccc3nc4c(cc3c2C1)Cn1c-4cc2c(c1=O)COC(=O)[C@]2(O)CC", "tested-system": "HT-29", "observation-type": "pIC50", "numeric-readout": 6.85}
{"query-smiles": "CC[C@@]1(O)C(=O)OCc2c1cc1n(c2=O)Cc2cc3c4c(ccc3nc2-1)OCN(c1ccc(F)cc1F)C4", "tested-system": "HT-29", "observation-type": "pIC50", "numeric-readout": 6.21}
{"query-smiles": "CC[C@@]1(O)C(=O)OCc2c1cc1n(c2=O)Cc2cc3c4c(ccc3nc2-1)OCN(C)C4", "tested-system": "HT-29", "observation-type": "pIC50", "numeric-readout": 6.16}
{"query-smiles": "CC[C@@]1(O)C(=O)OCc2c1cc1n(c2=O)Cc2cc3c4c(ccc3nc2-1)OCN(Cc1ccccc1)C4", "tested-system": "HT-29", "observation-type": "pIC50", "numeric-readout": 7.00}
{"query-smiles": "CC[C@@]1(O)C(=O)OCc2c1cc1n(c2=O)Cc2cc3c4c(ccc3nc2-1)OCN(c1ccc(C)cc1)C4", "tested-system": "HT-29", "observation-type": "pIC50", "numeric-readout": 6.28}
